Every entry's value here was drawn from ChEMBL document CHEMBL6083232.

targetDesc: Dual specificity tyrosine-phosphorylation-regulated kinase 4 (Homo sapiens)
Sequence (Q9NR20 whole entry): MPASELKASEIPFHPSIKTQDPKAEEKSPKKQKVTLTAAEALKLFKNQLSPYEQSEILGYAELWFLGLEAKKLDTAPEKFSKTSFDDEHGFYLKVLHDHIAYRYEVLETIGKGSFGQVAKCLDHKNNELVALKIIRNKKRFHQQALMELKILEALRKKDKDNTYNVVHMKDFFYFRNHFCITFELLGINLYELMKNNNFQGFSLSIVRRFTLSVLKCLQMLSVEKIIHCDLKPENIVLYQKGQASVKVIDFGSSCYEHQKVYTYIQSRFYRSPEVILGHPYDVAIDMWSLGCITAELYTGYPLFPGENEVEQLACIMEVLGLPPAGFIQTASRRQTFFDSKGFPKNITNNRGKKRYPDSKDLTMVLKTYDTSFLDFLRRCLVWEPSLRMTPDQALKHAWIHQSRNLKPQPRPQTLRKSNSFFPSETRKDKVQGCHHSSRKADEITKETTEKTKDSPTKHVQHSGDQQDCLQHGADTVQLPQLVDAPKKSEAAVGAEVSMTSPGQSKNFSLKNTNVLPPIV
property: IC50

>>> print(df.to_string())
                            substancesmiles                                targetdesc  readoutvalue
0  COc1ccc2cc3c4c(cc(OC)c(OC)c4c2c1)C(=O)N3  Dual specificity tyrosine-phosphorylation-regulated kinase 4 (Homo sapiens)       1180 nM

----------
targetDesc: Dual specificity tyrosine-phosphorylation-regulated kinase 1A (Homo sapiens)
measurementProtocol: Inhibition of DYRK1A (unknown origin)

compound	targetDesc	IC50
COCCn1nc2c(c1C#N)-c1cnc3[nH]cc(c3c1)-c1cn(nc1C(F)(F)F)CCCC(=O)N(C)C2	Dual specificity tyrosine-phosphorylation-regulated kinase 1A (Homo sapiens)	< 50 nM
Cn1cc(C(=O)Nc2ncc(-c3ccc(C#N)cc3)s2)ccc1=O	Dual specificity tyrosine-phosphorylation-regulated kinase 1A (Homo sapiens)	< 10 nM
CC(C)Nc1cncc(-c2ccc3cnc(NC(=O)C4CCN(C)CC4)cc3c2)n1	Dual specificity tyrosine-phosphorylation-regulated kinase 1A (Homo sapiens)	1 nM
O=C(NC1=Cc2ccc(O)cc2C1)Nc1ccc(NC(=O)c2ccc(O)cc2)cc1	Dual specificity tyrosine-phosphorylation-regulated kinase 1A (Homo sapiens)	7.8 nM
COc1nc(NC2CCN(C(C)=O)CC2F)nn2ccc(-c3ccc4nnn(CC(F)F)c4c3)c12 (stereo not given)	Dual specificity tyrosine-phosphorylation-regulated kinase 1A (Homo sapiens)	1 nM
COCC(CC(C)C)NC1=N/C(=C\c2ccc3ncsc3c2)C(=O)N1C (stereo not given)	Dual specificity tyrosine-phosphorylation-regulated kinase 1A (Homo sapiens)	< 5 nM
O=c1[nH]c2ccc(-c3cncc(NCc4ccccc4)n3)cc2[nH]1	Dual specificity tyrosine-phosphorylation-regulated kinase 1A (Homo sapiens)	1 nM
CN1CCN(c2ccc(-c3ncnc4ccc(-c5ccnc(N)c5)cc34)cc2F)CC1	Dual specificity tyrosine-phosphorylation-regulated kinase 1A (Homo sapiens)	< 100 nM
Cc1nc2ccc(-c3ccnc(N)c3)nc2n1-c1ccc(N2CCN(CCOCCOCCC(=O)N3CCN(Cc4ccc(CNc5cccc6c5C(=O)N(C5CCC(=O)NC5=O)C6)cc4)CC3)CC2)c(F)c1 (stereo not given)	Dual specificity tyrosine-phosphorylation-regulated kinase 1A (Homo sapiens)	< 10000 nM
CC(C)N1CCC(n2cc(C(=O)Nc3cc4cc(-c5cnn(C)c5)ccc4cn3)cn2)CC1	Dual specificity tyrosine-phosphorylation-regulated kinase 1A (Homo sapiens)	1 nM
